Each recorded value in this set is attributed to ChEMBL document CHEMBL4024792.

Assay: Apparent permeability from apical to basolateral side in human Caco2 cells assessed as drug recovery at 10 uM after 2 hrs by LC-MS/MS analysis
Type: ADME, cell-based
Settings: Caco-2, read-out: Drug recovery

Structure As Smiles	Unit Info	recovery at 2 h, 10 µM
COC(=O)c1ccccc1-c1c2ccc(=N)cc-2oc2cc(N)ccc12.Cl	%	89.8
O=C(NO)c1ccc(CNc2cccc3cccnc23)cc1	%	72.2

====

Consider the following compounds and their measured pIC50 readings.
Target: Histone deacetylase 8 (Homo sapiens)
Sequence (Q9BY41 whole entry): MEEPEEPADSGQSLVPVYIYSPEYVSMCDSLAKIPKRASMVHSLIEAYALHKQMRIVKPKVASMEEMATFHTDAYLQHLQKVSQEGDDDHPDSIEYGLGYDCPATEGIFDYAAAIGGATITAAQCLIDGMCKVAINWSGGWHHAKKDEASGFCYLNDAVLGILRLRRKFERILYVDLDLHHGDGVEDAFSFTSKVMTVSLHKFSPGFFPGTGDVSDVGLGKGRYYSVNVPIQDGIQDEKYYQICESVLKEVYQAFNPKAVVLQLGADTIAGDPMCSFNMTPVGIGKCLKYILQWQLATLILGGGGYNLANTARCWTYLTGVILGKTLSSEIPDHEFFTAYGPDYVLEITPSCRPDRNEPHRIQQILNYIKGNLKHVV
Test: Inhibition of recombinant human C-terminal His-tagged/N-terminal Strep2-tagged HDAC8 (1 to 377 residues) expressed in insect cells using RHK-K(Ac)-AMC as substrate after 60 mins by fluorescence assay
pIC50: −log10 of the molar value.

Structure As Smiles	Assayed System	pIC50
O=C(NO)c1ccc(CNc2cccc3ncccc23)cc1	Histone deacetylase 8 (Homo sapiens)	6.20
O=C(NO)c1ccc(CNc2cccc3cccnc23)cc1	Histone deacetylase 8 (Homo sapiens)	5.92

====

Experiment: Intrinsic clearance in human hepatocytes at 10 uM by LC-MS/MS analysis
Format: ADME, cell-based, Hepatocyte
Details: read-out: CLH

Structure As Smiles	CLint scaled at 10 µM, mL/min/kg
O=C(NO)c1ccc(CNc2cccc3cccnc23)cc1	32.5

====

Consider the following compounds and their measured IC50 readings.
Target: Histone deacetylase 2 (Homo sapiens)
Sequence (Q92769 whole entry): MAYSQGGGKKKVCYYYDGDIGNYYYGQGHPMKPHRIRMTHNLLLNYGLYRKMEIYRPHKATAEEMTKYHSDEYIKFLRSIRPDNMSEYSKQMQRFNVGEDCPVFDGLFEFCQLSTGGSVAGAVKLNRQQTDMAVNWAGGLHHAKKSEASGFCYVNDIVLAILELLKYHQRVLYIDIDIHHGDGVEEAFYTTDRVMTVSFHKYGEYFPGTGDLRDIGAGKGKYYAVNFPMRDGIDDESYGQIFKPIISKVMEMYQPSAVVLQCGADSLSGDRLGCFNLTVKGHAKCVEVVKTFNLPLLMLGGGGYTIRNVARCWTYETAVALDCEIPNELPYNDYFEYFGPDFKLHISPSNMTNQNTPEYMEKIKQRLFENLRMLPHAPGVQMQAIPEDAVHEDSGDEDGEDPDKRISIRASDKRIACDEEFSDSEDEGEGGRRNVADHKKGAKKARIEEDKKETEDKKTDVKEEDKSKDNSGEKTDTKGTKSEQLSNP
Test: Inhibition of full length recombinant human C-terminal GST-tagged HDAC2 expressed in baculovirus infected insect cells using RHK-K(Ac)-AMC as substrate after 60 mins by fluorescence assay
Readout Label: IC50 (µM)

Structure As Smiles	Readout Value
O=C(NO)c1ccc(CNc2cccc3cccnc23)cc1	12.5
O=C(NO)c1ccc(CNc2cccc3ncccc23)cc1	8.61

====

Assay: Stability in beagle dog hepatocytes assessed as parent compound remaining at 10 uM after 60 mins by LC-MS/MS analysis
Assay type: ADME, cell-based, Canis lupus familiaris, Hepatocyte
Settings: read-out: Stability
Readout Label: remaining at 1 h, 10 µM (%)

Structure As Smiles	Readout Value
O=C(NO)c1ccc(CNc2cccc3cccnc23)cc1	70.6

====

Test: Half life in human hepatocytes at 10 uM by LC-MS/MS analysis
Assay type: ADME, cell-based, Hepatocyte

Structure As Smiles	half-life at 10 µM [h]
O=C(NO)c1ccc(CNc2cccc3cccnc23)cc1	4

====

Biological target: Histone deacetylase 1 (Homo sapiens, UniProt Q13547)
Sequence (Q13547 whole entry): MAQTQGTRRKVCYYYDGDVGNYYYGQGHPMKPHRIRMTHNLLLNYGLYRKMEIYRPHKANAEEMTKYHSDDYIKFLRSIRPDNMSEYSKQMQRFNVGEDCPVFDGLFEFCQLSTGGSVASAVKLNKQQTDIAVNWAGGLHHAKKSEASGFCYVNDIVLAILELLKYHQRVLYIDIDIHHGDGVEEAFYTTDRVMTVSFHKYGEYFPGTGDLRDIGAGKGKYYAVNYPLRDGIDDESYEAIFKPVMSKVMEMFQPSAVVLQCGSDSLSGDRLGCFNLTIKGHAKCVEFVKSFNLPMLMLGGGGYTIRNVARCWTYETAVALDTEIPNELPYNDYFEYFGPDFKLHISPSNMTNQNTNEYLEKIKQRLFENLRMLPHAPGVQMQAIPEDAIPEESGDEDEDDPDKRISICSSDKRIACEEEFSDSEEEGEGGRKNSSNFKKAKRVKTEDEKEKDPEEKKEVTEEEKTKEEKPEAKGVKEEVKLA
Assay: Inhibition of full length recombinant human C-terminal FLAG/His-tagged HDAC1 expressed in baculovirus infected sf21 cells using RHK-K(Ac)-AMC as substrate after 60 mins by fluorescence assay

Structure As Smiles	Unit Info	IC50
O=C(NO)c1ccc(CNc2cccc3ncccc23)cc1	µM	7.05
O=C(NO)c1ccc(CNc2cccc3cccnc23)cc1	µM	9.55

====

Target: Polyamine deacetylase HDAC10 (Homo sapiens)
Sequence (Q969S8 whole entry): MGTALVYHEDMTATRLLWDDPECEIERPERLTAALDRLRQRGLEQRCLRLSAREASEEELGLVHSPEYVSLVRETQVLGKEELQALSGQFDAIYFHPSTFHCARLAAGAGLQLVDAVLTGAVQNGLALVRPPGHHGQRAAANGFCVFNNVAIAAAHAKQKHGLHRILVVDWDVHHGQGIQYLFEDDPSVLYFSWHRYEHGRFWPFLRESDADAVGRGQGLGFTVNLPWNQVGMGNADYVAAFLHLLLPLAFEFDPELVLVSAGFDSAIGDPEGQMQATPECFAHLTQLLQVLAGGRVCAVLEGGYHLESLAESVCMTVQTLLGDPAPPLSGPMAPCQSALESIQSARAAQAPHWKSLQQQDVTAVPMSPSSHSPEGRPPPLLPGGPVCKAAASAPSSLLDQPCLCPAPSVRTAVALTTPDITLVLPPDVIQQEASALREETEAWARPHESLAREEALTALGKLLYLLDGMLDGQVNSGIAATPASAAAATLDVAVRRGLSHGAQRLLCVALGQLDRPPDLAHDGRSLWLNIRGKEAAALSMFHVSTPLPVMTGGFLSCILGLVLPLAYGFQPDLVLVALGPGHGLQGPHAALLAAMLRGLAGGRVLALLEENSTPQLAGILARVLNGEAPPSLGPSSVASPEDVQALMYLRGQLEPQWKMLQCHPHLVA

Structure As Smiles	Unit Info	IC50
O=C(NO)c1ccc(CNc2cccc3ncccc23)cc1	µM	1.26

====

Consider the following compounds and their measured pIC50 readings.
Target: Histone deacetylase 3/Nuclear receptor corepressor 2 (HDAC3/NCoR2) (Homo sapiens, UniProt O15379)
Sequence (O15379 whole entry, the tested form may be a part): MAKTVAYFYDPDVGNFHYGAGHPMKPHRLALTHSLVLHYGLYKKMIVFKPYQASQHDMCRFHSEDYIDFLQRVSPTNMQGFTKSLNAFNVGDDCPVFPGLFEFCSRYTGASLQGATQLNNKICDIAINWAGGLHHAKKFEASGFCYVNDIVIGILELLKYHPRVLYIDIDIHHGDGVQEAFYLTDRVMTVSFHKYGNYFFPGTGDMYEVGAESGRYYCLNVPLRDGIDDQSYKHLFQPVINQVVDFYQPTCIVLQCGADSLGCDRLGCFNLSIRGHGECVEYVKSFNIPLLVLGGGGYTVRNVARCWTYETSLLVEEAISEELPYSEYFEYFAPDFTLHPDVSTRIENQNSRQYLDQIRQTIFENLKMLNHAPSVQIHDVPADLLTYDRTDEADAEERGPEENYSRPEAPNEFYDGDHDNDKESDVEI
Sequence (Q9Y618 whole entry, further chain, the tested form may be a part): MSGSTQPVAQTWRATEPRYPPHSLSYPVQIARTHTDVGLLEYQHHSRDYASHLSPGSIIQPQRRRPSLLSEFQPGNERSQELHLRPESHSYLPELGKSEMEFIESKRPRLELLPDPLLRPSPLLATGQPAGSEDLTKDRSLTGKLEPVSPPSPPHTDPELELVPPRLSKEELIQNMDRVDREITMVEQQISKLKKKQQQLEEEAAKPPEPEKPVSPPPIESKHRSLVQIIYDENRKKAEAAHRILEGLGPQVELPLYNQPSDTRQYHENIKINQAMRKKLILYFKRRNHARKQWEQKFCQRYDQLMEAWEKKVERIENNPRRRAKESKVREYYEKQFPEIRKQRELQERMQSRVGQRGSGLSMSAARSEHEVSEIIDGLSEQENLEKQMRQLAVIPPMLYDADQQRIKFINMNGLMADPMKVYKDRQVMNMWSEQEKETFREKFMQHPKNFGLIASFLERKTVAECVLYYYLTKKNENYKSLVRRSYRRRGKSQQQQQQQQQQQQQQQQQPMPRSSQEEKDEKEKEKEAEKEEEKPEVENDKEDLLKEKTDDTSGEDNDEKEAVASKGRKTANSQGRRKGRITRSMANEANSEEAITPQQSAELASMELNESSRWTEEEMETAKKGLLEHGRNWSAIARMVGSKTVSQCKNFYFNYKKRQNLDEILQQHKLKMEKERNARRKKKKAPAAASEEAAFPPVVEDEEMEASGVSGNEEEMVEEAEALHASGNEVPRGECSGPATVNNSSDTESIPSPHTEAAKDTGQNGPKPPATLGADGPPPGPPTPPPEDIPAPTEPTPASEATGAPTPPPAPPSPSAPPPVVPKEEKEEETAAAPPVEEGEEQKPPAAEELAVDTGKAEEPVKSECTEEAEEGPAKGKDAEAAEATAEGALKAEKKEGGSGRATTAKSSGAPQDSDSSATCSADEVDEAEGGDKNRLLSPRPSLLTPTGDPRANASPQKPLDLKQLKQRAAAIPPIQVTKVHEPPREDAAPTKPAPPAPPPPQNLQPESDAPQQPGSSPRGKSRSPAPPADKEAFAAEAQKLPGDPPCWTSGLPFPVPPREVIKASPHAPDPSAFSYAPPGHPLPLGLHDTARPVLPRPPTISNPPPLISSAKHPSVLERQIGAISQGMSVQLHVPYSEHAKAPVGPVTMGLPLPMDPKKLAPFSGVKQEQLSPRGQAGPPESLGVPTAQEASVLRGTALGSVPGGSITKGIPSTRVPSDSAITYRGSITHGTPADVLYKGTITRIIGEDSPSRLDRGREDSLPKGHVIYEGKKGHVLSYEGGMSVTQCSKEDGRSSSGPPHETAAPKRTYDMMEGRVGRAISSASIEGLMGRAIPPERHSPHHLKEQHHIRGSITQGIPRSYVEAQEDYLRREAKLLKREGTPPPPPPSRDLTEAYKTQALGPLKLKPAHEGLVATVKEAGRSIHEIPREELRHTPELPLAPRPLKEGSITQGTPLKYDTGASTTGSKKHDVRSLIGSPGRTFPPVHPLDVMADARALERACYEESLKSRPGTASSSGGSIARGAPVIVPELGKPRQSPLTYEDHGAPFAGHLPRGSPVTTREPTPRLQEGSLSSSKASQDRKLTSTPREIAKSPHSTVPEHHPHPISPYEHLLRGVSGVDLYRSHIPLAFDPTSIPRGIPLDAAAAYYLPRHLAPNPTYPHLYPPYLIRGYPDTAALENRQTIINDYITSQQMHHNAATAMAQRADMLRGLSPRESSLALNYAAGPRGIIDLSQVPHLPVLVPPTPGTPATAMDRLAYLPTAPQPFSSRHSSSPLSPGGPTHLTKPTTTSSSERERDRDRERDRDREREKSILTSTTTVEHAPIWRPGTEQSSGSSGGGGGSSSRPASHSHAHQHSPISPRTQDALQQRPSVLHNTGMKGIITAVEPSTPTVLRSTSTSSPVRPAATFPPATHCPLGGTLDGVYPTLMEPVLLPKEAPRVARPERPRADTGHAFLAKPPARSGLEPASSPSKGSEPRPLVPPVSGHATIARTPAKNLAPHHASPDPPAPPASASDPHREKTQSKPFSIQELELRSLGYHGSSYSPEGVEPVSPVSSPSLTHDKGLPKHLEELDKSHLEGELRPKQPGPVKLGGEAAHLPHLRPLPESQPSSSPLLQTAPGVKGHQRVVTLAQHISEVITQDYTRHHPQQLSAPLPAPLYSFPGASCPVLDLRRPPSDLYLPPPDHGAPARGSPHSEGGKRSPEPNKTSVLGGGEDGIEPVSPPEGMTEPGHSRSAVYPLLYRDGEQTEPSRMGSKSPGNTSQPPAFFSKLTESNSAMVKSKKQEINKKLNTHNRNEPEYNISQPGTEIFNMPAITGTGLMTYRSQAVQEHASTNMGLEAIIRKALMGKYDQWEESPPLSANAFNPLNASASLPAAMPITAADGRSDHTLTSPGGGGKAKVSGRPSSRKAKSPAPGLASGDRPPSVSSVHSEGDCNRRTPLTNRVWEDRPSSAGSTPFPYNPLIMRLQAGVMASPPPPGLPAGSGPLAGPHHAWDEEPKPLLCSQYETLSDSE
Assay: Inhibition of full length recombinant human C-terminal His-tagged HDAC3/N-terminal GST-tagged NCOR2 (395 to 489 residues) expressed in insect cells using RHK-K(Ac)-AMC as substrate after 60 mins by fluorescence assay
pIC50: −log10 of the molar value.
Readout Label: pIC50

Structure As Smiles	Readout Value
O=C(NO)c1ccc(CNc2cccc3cccnc23)cc1	5.11
O=C(NO)c1ccc(CNc2cccc3ncccc23)cc1	5.26

====

Assay: Apparent permeability from basolateral to apical side in human Caco2 cells assessed as drug recovery at 10 uM after 2 hrs by LC-MS/MS analysis
Type: ADME, cell-based
Details: Caco-2, read-out: Drug recovery
Consider the following compounds and their measured recovery at 2 h, 10 µM readings.
Readout Label: recovery at 2 h, 10 µM (%)

Structure As Smiles	Readout Label	Unit Info	Readout Value
COC(=O)c1ccccc1-c1c2ccc(=N)cc-2oc2cc(N)ccc12.Cl	recovery at 2 h, 10 µM	%	93.9
O=C(NO)c1ccc(CNc2cccc3cccnc23)cc1	recovery at 2 h, 10 µM	%	69

====

Experiment: Stability in Sprague-Dawley rat hepatocytes assessed as parent compound remaining at 10 uM after 60 mins by LC-MS/MS analysis
Type: ADME, cell-based, Hepatocyte
Settings: read-out: Stability
Readout Label: remaining at 1 h, 10 µM

Structure As Smiles	Readout Value
O=C(NO)c1ccc(CNc2cccc3cccnc23)cc1	28.4%

====

Experiment: Half life in beagle dog hepatocytes at 10 uM by LC-MS/MS analysis
Assay type: ADME, cell-based, Canis lupus familiaris, Hepatocyte

Structure As Smiles	Unit Info	half-life at 10 µM
O=C(NO)c1ccc(CNc2cccc3cccnc23)cc1	h	1.97
